Record form. Attribute: pKd. Fill in for each entry.
- experimentalSystem: T1, cynomolgus monkey BCMA (cynomolgus monkey, UniProt A0A2K5UD97 1-53)
- T1 construct: Soluble analyte in SPR; construct not described; also called cyBCMA; Cyno BCMA
- T1 sequence (A0A2K5UD97 entry or part of it): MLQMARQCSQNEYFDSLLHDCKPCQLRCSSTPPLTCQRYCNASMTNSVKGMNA
- assayExplanation: SPR, IgG on chip, cyBCMA analyte, 37C
Give bare numbers, as −log10 of the molar value.

L3.PY/L3.KF/H3.TAQ (antibody, V domains shown, IgG) VH: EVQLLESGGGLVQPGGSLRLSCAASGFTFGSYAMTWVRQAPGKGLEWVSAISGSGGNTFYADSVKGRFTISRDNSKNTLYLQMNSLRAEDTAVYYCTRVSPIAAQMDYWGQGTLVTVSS VL: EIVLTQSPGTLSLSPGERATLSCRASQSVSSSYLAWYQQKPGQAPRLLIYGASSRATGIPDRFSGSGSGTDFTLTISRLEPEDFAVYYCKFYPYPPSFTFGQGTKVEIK : 9.02

# batch: return pKd for each of the 2 binders below
1. L3.PY/L1.FF/H3.AE (antibody, V domains shown, IgG) VH: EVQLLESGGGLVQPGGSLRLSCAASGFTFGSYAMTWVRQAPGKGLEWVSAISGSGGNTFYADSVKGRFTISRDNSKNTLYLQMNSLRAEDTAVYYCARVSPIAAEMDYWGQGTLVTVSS VL: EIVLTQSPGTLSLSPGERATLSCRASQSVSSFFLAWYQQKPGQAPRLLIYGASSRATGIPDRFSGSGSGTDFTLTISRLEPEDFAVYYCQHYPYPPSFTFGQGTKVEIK
2. L3.PY/L1.FF/H3.AQ (antibody, V domains shown, IgG) VH: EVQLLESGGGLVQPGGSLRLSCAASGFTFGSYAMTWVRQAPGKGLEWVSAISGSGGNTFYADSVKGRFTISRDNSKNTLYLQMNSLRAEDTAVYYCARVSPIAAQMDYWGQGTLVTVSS VL: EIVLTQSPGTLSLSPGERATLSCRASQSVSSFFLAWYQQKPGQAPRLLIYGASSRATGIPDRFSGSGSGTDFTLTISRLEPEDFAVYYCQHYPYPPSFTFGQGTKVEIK

Response:
1: 8.75; 2: 8.82

Every entry's value here was drawn from patent US20190241669A1.
